Assay: Fab Tm by dynamic scanning fluorimetry (DSF)
Assay type: physicochemical
Details: optimized antibodies
Recorded Fab Tm (DSF, ° C.) for the following molecules
Reply numerically in °C, unit not repeated.

{"columns": ["molecule", "Fab Tm (DSF, ° C.) / °C"],
 "data": [
  ["ADI-71707: anti-IL18-BP antibody, sequences in FIG. 2M; 66650 lineage (antibody, V domains shown) VH: QVQLVQSGAEVKKPGASVKVSCKASGYTFRHYAMHWVRQAPGQRLEWMGWIHAGTGNTLYSQKFQGRVTITRDTSASTAYMELSSLRSEDTAVYYCARGLGEVGPTGTSWFDPWGQGTLVTVSS VL: DIQMTQSPSTLSASVGDRVTITCRASQSISSWLAWYQQKPGKAPKLLIYEASSLESGVPSRFSGSGSGTEFTLTISSLQPDDFATYYCQQYRLGPFTFGGGTKVEIK", 71.0]
]}

Field: next molecule
Provide measured Fab Tm (DSF, ° C.) value, entry: ADI-71701: anti-IL18-BP antibody, sequences in FIG. 2E; 66650 lineage (antibody, V domains shown) VH: QVQLVQSGAEVKKPGASVKVSCKASGYTFNSYAMHWVRQAPGQRLEWMGWIHAGTGNTKYSQKFQGRVTITRDTSASTAYMELSSLRSEDTAVYYCARGLGEVGPTGTSWFDPWGQGTLVTVSS VL: DIQMTQSPPTLSASVGDRVTITCRASQSISSWLAWYQQKPGKAPKLLIYEASSLESGVPSRFSGSGSGTEFTLTISSLQPDDFATYYCQQYRVFPFTFGGGTKVEIK
71.5
